Documented pEC50 across a set of compounds
assay system: RET V804L (Homo sapiens, UniProt P07949, V804L)
Sequence (P07949 29-1114 V804L): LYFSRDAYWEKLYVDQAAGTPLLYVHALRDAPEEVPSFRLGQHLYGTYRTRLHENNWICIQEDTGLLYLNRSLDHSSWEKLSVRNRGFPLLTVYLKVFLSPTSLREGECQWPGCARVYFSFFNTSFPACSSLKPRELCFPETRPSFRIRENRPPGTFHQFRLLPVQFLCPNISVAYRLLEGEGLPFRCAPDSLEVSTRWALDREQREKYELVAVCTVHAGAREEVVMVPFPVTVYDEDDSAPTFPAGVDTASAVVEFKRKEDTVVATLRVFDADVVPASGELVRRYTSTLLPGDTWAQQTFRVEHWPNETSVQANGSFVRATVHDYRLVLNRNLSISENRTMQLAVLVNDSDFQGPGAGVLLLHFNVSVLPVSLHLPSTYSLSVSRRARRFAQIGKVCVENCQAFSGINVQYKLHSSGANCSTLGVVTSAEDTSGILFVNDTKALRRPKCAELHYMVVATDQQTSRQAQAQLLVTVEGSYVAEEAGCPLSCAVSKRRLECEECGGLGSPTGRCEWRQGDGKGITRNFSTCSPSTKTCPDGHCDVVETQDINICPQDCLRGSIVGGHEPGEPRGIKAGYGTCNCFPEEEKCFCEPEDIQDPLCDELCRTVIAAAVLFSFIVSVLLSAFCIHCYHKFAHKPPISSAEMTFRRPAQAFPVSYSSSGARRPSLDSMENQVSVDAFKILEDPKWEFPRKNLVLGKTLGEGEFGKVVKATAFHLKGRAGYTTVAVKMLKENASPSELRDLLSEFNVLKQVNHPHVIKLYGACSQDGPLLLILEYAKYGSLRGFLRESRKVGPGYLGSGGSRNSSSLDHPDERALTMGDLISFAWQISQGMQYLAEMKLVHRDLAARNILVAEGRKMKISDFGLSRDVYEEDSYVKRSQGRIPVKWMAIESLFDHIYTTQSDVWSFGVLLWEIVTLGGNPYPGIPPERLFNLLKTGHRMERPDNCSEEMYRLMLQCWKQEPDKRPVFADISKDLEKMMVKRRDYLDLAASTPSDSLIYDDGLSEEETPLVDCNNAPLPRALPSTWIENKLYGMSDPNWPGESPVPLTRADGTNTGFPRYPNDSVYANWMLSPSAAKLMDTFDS
assay explanation: SelectScreen kinase specificity survey
assay context: estimated, abridged dose response curve, read-out: Kinase inhibitory activity EC50
Kindly note that pEC50 refers to -log10 of the concentration in mol/L and answer with the value alone.

Inquiry: Look up pEC50 for this compound: CN(C)CCCNc1ccc2ncn3c4ccc5[nH]ncc5c4c(=O)c1c23
Reply text: 6.06

Now turn to the next compound.
Inquiry: Look up pEC50 for this compound: CCN(CC)CCNc1ccc2ncn3c4ccc(O)cc4c(=O)c1c23 [Symadex, reference compound]
Reply text: 6.13

* * *

Documented pEC50 across a set of compounds
assay system: STK3 (MST2) (Homo sapiens)
Sequence (Q13188 whole entry): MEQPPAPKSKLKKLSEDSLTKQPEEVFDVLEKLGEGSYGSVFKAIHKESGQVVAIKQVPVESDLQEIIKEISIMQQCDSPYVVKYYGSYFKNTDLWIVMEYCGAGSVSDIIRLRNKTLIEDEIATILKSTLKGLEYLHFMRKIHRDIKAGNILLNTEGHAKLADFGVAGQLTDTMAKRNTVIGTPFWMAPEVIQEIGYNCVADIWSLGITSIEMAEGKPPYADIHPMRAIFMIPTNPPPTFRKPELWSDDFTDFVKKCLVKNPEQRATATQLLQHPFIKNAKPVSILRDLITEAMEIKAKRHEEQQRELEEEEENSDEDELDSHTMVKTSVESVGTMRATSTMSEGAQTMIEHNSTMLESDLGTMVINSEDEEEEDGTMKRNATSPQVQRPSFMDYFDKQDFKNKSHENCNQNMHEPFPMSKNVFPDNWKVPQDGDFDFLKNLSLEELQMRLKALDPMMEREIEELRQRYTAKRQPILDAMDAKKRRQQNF
assay explanation: SelectScreen kinase specificity survey
assay context: estimated, abridged dose response curve, read-out: Kinase inhibitory activity EC50
pEC50: −log10 of the molar value.

Inquiry: Look up pEC50 for this compound: CN(C)CCCNc1ccc2ncn3c4ccc5[nH]ncc5c4c(=O)c1c23 [Compound (IV)]
Reply text: < 5.30

Now turn to the next compound.
Inquiry: Look up pEC50 for this compound: CCN(CC)CCNc1ccc2ncn3c4ccc(O)cc4c(=O)c1c23 [Symadex, reference compound]
Reply text: < 5.30

* * *

assay system: BTK (Homo sapiens, UniProt Q06187)
Sequence (Q06187 whole entry): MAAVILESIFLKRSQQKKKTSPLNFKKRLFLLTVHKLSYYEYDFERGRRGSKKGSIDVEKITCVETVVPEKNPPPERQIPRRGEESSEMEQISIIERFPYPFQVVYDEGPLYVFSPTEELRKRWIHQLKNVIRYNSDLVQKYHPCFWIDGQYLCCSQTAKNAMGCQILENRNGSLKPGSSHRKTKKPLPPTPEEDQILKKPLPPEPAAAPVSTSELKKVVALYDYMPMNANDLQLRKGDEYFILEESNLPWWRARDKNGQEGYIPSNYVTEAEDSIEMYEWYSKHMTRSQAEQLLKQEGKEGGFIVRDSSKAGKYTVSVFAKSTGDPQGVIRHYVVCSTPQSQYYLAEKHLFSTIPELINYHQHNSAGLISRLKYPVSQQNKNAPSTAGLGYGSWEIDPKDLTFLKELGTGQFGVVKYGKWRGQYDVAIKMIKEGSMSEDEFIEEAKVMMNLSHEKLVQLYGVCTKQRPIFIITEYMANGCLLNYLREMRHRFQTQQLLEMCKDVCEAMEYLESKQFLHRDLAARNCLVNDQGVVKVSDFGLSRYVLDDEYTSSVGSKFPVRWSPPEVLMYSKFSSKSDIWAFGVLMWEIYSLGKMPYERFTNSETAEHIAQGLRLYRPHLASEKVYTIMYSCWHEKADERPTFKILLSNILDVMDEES
assay explanation: SelectScreen kinase specificity survey
assay context: estimated, abridged dose response curve, read-out: Kinase inhibitory activity EC50
endpoint name: EC50
Answer with the number, then the unit.

Inquiry: Look up EC50 for this compound: CN(C)CCCNc1ccc2ncn3c4ccc5[nH]ncc5c4c(=O)c1c23
Reply text: 1440 nM

Now turn to the next compound.
Inquiry: Look up EC50 for this compound: CCN(CC)CCNc1ccc2ncn3c4ccc(O)cc4c(=O)c1c23 [Symadex, reference compound]
Reply text: 3020 nM

* * *

assay system: ADRBK1 (BARK1, GRK2) (Homo sapiens)
Construct: purchased Invitrogen (SelectScreen platform)
Sequence (P25098 1-689): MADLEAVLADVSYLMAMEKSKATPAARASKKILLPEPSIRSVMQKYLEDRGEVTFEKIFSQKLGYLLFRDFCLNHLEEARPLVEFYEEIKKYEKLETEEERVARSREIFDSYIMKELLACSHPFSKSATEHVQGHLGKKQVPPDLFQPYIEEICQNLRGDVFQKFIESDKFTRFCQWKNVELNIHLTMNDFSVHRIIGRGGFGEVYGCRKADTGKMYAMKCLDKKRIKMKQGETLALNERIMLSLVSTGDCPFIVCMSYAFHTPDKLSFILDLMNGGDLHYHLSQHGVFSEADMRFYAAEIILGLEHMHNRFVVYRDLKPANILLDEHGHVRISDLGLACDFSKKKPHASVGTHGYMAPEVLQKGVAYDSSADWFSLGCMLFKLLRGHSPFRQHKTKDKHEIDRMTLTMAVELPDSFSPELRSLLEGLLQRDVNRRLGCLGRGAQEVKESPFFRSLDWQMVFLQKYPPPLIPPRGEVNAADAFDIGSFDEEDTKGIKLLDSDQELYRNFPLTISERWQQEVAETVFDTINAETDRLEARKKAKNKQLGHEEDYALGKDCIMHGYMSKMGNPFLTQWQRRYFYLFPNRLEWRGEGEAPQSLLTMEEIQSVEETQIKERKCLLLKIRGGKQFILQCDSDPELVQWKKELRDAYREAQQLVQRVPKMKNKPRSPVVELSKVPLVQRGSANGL
assay explanation: SelectScreen kinase specificity survey
Type: biochemical
assay context: ADRBK1 (BARK1, GRK2); estimated, abridged dose response curve; read-out: Kinase inhibitory activity EC50
endpoint name: EC50

Inquiry: Look up EC50 for this compound: CN(C)CCCNc1ccc2ncn3c4ccc5[nH]ncc5c4c(=O)c1c23 [Compound (IV)]
Reply text: > 5 µM
